Reported Kp values follow for various compounds
- ASSAY_NOTES: clinical
- CONDITION_CONTEXT: human, in vivo, iv, 200 mg
Starred links: 1 amine or outer side, 2 acyl side, 3 side chain; linkers in the order of their positions; H or OH if unused. Positions of bridges follow the written chain, without caps; N, C: chain ends. Non-standard residues stand in square brackets, D forms with d. Residues, ends and D or L forms follow the SMILES beside them. *: point of attachment. hTyr(3S-OH,4S-OH,3'-OSO3H) = N[C@H](C(=O)O)[C@H](O)[C@@H](O)c1ccc(O)c(OS(=O)(=O)O)c1; pTerphenylCO(4''-OnC5H11) = CCCCCOc1ccc(-c2ccc(-c3ccc(C(=O)*)cc3)cc2)cc1; Orn(4R-OH,5R-OH) = O=C([C@H](C[C@@H](O)[C@@H](O)N[*:3])N[*:1])[*:2]; hTyr(3S-OH,4S-OH) = N[C@H](C(=O)O)[C@H](O)[C@@H](O)c1ccc(O)cc1; Pro(3S-OH,4S-Me) = C[C@H]1CN[C@H](C(=O)O)[C@H]1O; X1 = CCCCCOc1ccc(-c2cc(-c3ccc(C(=O)*)cc3)no2)cc1; Gln(3R-OH) = NC(=O)C[C@@H](O)[C@H](N)C(=O)O; Hyp = O=C(O)[C@@H]1C[C@@H](O)CN1

COMPOUND	Kp
CCCCCOc1ccc(-c2cc(-c3ccc(C(=O)N[C@H]4C[C@@H](O)[C@@H](O)NC(=O)[C@@H]5[C@@H](O)[C@@H](C)CN5C(=O)[C@H]([C@H](O)CC(N)=O)NC(=O)[C@H]([C@H](O)[C@@H](O)c5ccc(O)c(OS(=O)(=O)O)c5)NC(=O)[C@@H]5C[C@@H](O)CN5C(=O)[C@H]([C@@H](C)O)NC4=O)cc3)no2)cc1 [micafungin] (X1-[Orn(4R-OH,5R-OH)]T[Hyp][hTyr(3S-OH,4S-OH,3'-OSO3H)][Gln(3R-OH)][Pro(3S-OH,4S-Me)]; lactam 1-C)	0.02
CCCCCOc1ccc(-c2ccc(-c3ccc(C(=O)N[C@H]4C[C@@H](O)[C@@H](O)NC(=O)[C@@H]5[C@@H](O)[C@@H](C)CN5C(=O)[C@H]([C@@H](C)O)NC(=O)[C@H]([C@H](O)[C@@H](O)c5ccc(O)cc5)NC(=O)[C@@H]5C[C@@H](O)CN5C(=O)[C@H]([C@@H](C)O)NC4=O)cc3)cc2)cc1 [anidulafungin] ({pTerphenylCO(4''-OnC5H11)}-[Orn(4R-OH,5R-OH)]T[Hyp][hTyr(3S-OH,4S-OH)]T[Pro(3S-OH,4S-Me)]; lactam 1-C)	0.07
